Origin of values: ChEMBL document CHEMBL1255546

TEST SUMMARY: Intrinsic clearance in rat liver microsomes
Type: ADME, Microsome
Can you tell me microsomal CLint for the items I'm about to list?
Number in µL/min/mg, nothing else.

Param item = `CC(C)N1CCC(Oc2cc3cc4n(c3cc2Br)[C@@H](C)CN(CC2CC2)C4=O)CC1` ; retrieve measured microsomal CLint. 20

Can you handle `CC(C)N1CCC(Oc2ccc3c(c2)cc2n3C[C@@H](C)N(CC3CC3)C2=O)CC1` next? 10

Can you handle `CC(C)N1CCC(Oc2ccc3c(c2)cc2n3CCN(CCO)C2=O)CC1` next? 11

Can you handle `CC(C)N1CCC(Oc2ccc3c(c2)cc2n3CCN(CC3CC3)C2=O)CC1` next? 9

====

TARGET OR SYSTEM: Histamine H4 receptor (Homo sapiens) (UniProt Q9H3N8)
Sequence (Q9H3N8 whole entry): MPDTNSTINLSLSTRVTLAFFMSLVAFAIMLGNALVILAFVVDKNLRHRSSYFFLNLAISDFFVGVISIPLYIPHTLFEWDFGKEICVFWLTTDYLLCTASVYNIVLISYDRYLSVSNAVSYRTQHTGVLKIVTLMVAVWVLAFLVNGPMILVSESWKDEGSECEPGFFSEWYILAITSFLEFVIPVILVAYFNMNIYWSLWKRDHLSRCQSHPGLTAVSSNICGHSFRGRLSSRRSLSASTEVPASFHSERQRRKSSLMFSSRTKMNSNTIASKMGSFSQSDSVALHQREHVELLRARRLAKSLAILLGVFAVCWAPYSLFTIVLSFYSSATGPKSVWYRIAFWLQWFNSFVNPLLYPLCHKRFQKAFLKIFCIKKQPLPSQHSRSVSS
TEST SUMMARY: Displacement of [3H]-histamine from human histamine H4 receptor
Design: concentration or dose not given beside the values
EXPERIMENTAL PARAMETERS: concentration not given here
ASSAY ENDPOINT: inhibition (%)
Number in %, nothing else.

Param item = `CC(C)N1CCC(Oc2cc3cc4n(c3cc2Br)[C@@H](C)CN(CC2CC2)C4=O)CC1` ; retrieve measured inhibition. 1

Can you handle `CC(C)N1CCC(Oc2ccc3c(c2)cc2n3C[C@@H](C)N(CC3CC3)C2=O)CC1` next? 12

Can you handle `CC(C)N1CCC(Oc2ccc3c(c2)cc2n3CCN(CCO)C2=O)CC1` next? -5

Can you handle `CC(C)N1CCC(Oc2ccc3c(c2)cc2n3CCN(C)C2=O)CC1` next? 0

Can you handle `CC(C)N1CCC(Oc2ccc3c(c2)cc2n3[C@@H](C)CNC2=O)CC1` next? 10

Can you handle `CC(C)N1CCC(Oc2ccc3c(c2)cc2n3CCN(Cc3cccc(F)c3)C2=O)CC1` next? 4

Can you handle `CC(C)N1CCC(Oc2ccc3c(c2)cc(C(=O)N2CCC(F)(F)CC2)n3C(C)C)CC1` next? 7

Can you handle `COCCN1CCn2c(cc3cc(OC4CCN(C(C)C)CC4)ccc32)C1=O` next? 0

Can you handle `C[C@@H]1CCCN1CCCOc1ccc2c(c1)cc1n2CCNC1=O` next? -4

Can you handle `CC(C)N1CCC(Oc2ccc3c(c2)cc2n3CCN(Cc3ccccn3)C2=O)CC1` next? -3

====

TARGET OR SYSTEM: Histamine H3 receptor (Homo sapiens)
Sequence (Q9Y5N1 whole entry): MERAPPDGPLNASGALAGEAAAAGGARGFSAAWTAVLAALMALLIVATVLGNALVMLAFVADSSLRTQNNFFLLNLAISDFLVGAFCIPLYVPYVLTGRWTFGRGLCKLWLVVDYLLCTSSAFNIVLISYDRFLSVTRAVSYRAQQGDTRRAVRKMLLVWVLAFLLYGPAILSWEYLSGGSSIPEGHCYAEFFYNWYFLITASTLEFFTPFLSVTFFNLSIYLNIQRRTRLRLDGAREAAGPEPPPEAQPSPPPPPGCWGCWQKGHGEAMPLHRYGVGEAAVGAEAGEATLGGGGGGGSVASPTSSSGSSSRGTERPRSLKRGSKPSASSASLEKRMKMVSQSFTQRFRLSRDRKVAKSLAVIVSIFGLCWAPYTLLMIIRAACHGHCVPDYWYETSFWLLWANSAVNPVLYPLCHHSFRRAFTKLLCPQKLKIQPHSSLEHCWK
TEST SUMMARY: Inverse agonist activity at human recombinant histamine H3 receptor assessed as effect on [35S]GTPgammaS binding
ASSAY ENDPOINT: pEC50
pEC50 (log units): -log10 of the concentration in mol/L.

Param item = `CC(C)N1CCC(Oc2ccc3c(c2)cc2n3C[C@@H](C)N(CC3CC3)C2=O)CC1` ; retrieve measured pEC50. 7.74

Can you handle `CC(C)N1CCC(Oc2ccc3c(c2)cc2n3CCN(C(C)C)C2=O)CC1` next? 7.60

Can you handle `CC(C)N1CCC(Oc2ccc3c(c2)cc2n3CCN(C)C2=O)CC1` next? 7.32

Can you handle `CC(C)N1CCC(Oc2ccc3c(c2)cc2n3C[C@@H](C)NC2=O)CC1` next? 7.34

Can you handle `CC(C)N1CCC(Oc2ccc3c(c2)cc2n3CCN(Cc3ccc(F)cc3)C2=O)CC1` next? 7.85

Can you handle `CC(C)N1CCC(Oc2ccc3c(c2)cc2n3CCNC2=O)CC1` next? 7.42

Can you handle `CC(C)N1CCC(Oc2ccc3c(c2)cc(C(=O)N2CCC(F)(F)CC2)n3C(C)C)CC1` next? 8.70
